Hey, just so you know, these numbers are from ChEMBL document CHEMBL1141938.

Test system: Human immunodeficiency virus
Assay: Antiviral activity against 4X HIV strain
Assay type: functional
Details: Human immunodeficiency virus 1, 4X; read-out: CIC95
So I've got a bunch of compounds here, and I need their IC95 values.
Express the result in nM but write the number alone.

Q: # IC95 lookup, item "CC(C)(C)NC(=O)[C@@H]1CN(Cc2cccnc2)CCN1C[C@@H](O)C[C@@H](Cc1ccccc1)C(=O)N[C@H]1c2ccccc2C[C@H]1O"
Result: 400

Q: What measured IC95 goes with "O=C(N[C@H]1c2ccccc2OC[C@H]1O)[C@H](Cc1cc2ccncc2o1)C[C@H](O)CN1CCN(Cc2ccc(-c3ccc(Cl)cc3)o2)C[C@H]1C(=O)NCC(F)(F)F" ?
Result: 31.3

Q: Request the reported IC95 associated with "O=C(N[C@H]1c2ccccc2OC[C@H]1O)[C@H](Cc1cc2cnccc2s1)C[C@H](O)CN1CCN(Cc2csc(-c3ccc(C(F)(F)F)cc3)n2)C[C@H]1C(=O)NCC(F)(F)F"
Result: 125

Q: Recorded IC95 for "O=C(N[C@H]1c2ccccc2OC[C@H]1O)[C@H](Cc1cc2cnccc2s1)C[C@H](O)CN1CCN(Cc2ccc(-c3ccc(Cl)cc3)o2)C[C@H]1C(=O)NCC(F)(F)F" , please?
Result: 15.6

Q: // query IC95 value for entry "Cc1ccncc1-c1ccc(C[C@H](C[C@H](O)CN2CCN(Cc3ncc(-c4ccc(Cl)cc4)o3)C[C@H]2C(=O)NCC(F)(F)F)C(=O)N[C@H]2c3ccccc3OC[C@H]2O)o1"
Result: 62.5

Q: Could you share which IC95 value was measured for "O=C(N[C@H]1c2ccccc2OC[C@H]1O)[C@H](Cc1cc2cnccc2s1)C[C@H](O)CN1CCN(Cc2ccc(-c3ccc(Cl)cc3)s2)C[C@H]1C(=O)NCC(F)(F)F" ?
Result: 15.6

Q: I'd like to know its IC95. The compound in question is "Cc1ccncc1-c1ccc(C[C@H](C[C@H](O)CN2CCN(Cc3csc(-c4ccc(F)cc4)n3)C[C@H]2C(=O)NCC(F)(F)F)C(=O)N[C@H]2c3ccccc3OC[C@H]2O)o1"
Result: 15.6
